test system: Aspergillus fumigatus; assay: Antimicrobial activity against Aspergillus fumigatus 7544 after 48 hrs by serial dilution method; assay type: functional; details: Aspergillus fumigatus, 7544, 48 h
EXPERIMENTAL_READOUT: log10 MIC (log10 of the value in µg/mL)

STRUCTURE_SMILES_STRING	log10 MIC
C[C@@H](N1CCc2nc(-c3ccncc3)sc2C1)[C@](O)(Cn1cncn1)c1ccc(F)cc1F	0.60
Cc1ncc(-c2nc3n(n2)CCN([C@H](C)[C@](O)(Cn2cncn2)c2ccc(F)cc2F)C3)cn1	1.51
C[C@@H](N1CCn2nc(-c3ccc(F)nc3)nc2C1)[C@](O)(Cn1cncn1)c1ccc(F)cc1F	0.30
C[C@@H](N1CCn2cc(-c3cccc(F)c3)nc2C1)[C@](O)(Cn1cncn1)c1ccc(F)cc1F	1.81
C[C@@H](N1CCn2cc(-c3ccc(F)cc3F)nc2C1)[C@](O)(Cn1cncn1)c1ccc(F)cc1F	1.51
C[C@@H](N1CCc2nc(-c3cccc(Cl)c3)sc2C1)[C@](O)(Cn1cncn1)c1ccc(F)cc1F	1.51
C[C@@H](N1CCc2nc(-c3cccc(F)c3)sc2C1)[C@](O)(Cn1cncn1)c1ccc(F)cc1F	1.51
COc1cccc(-c2nc3n(n2)CCN([C@H](C)[C@](O)(Cn2cncn2)c2ccc(F)cc2F)C3)c1	1.51
C[C@@H](N1CCn2nc(-c3ccc(Cl)cc3)nc2C1)[C@](O)(Cn1cncn1)c1ccc(F)cc1F	1.20
Cc1cccc(-c2nc3n(n2)CCN([C@H](C)[C@](O)(Cn2cncn2)c2ccc(F)cc2F)C3)c1	1.51
C[C@@H](N1CCc2nc(-c3ccc(C(F)(F)F)cc3)sc2C1)[C@](O)(Cn1cncn1)c1ccc(F)cc1F	1.51
C[C@@H](N1CCn2nc(-c3ccncc3)nc2C1)[C@](O)(Cn1cncn1)c1ccc(F)cc1F	1.20
C[C@@H](N1CCc2cc(Br)sc2C1)[C@](O)(Cn1cncn1)c1ccc(F)cc1F	1.51

====

tested on: Candida albicans; test: Antimicrobial activity against fluconazole-resistant Candida albicans J38 after 24 hrs by serial dilution method; assay type: functional; conditions: J38, 24 h
EXPERIMENTAL_READOUT: MIC (µg/mL)

STRUCTURE_SMILES_STRING	EXPERIMENTAL_READOUT	RELATION_QUALIFIER	READOUT_VALUE
C[C@@H](N1CCn2nc(-c3ccc(C#N)nc3)nc2C1)[C@](O)(Cn1cncn1)c1ccc(F)cc1F	MIC	≤	0.0312
C[C@@H](N1CCn2cc(-c3ccccc3)nc2C1)[C@](O)(Cn1cncn1)c1ccc(F)cc1F	MIC	=	0.125
C[C@@H](n1cnc2cc(Cl)ccc2c1=O)[C@](O)(Cn1cncn1)c1ccc(F)cc1F	MIC	≤	0.0312
C[C@@H](N1CCn2nc(-c3ccccc3)nc2C1)[C@](O)(Cn1cncn1)c1ccc(F)cc1F	MIC	=	0.0625
C[C@@H](N1CCn2nnc(Br)c2C1)[C@](O)(Cn1cncn1)c1ccc(F)cc1F	MIC	=	0.25
C[C@@H](c1ncncc1F)[C@](O)(Cn1cncn1)c1ccc(F)cc1F	MIC	=	0.0625
C[C@@H](N1CCc2nc(-c3cncnc3)sc2C1)[C@](O)(Cn1cncn1)c1ccc(F)cc1F	MIC	≤	0.0312
OC(Cn1cncn1)(Cn1cncn1)c1ccc(F)cc1F	MIC	>	4

====

test: Aqueous solubility of the compound in hydrochloric acid solution at pH 1.2; type: physicochemical
Threshold check on solubility: at or above 1000 µg/mL gives yes, strictly below gives no.

STRUCTURE_SMILES_STRING	CLASS_NAME
C[C@@H](N1CCn2nc(-c3ccc(C#N)nc3)nc2C1)[C@](O)(Cn1cncn1)c1ccc(F)cc1F	no
C[C@@H](n1cnc2cc(Cl)ccc2c1=O)[C@](O)(Cn1cncn1)c1ccc(F)cc1F	no
C[C@@H](N1CCn2nc(-c3ccccc3)nc2C1)[C@](O)(Cn1cncn1)c1ccc(F)cc1F	no
C[C@@H](c1ncncc1F)[C@](O)(Cn1cncn1)c1ccc(F)cc1F	yes
C[C@@H](c1nc(-c2ccc(C#N)cc2)cs1)[C@](O)(Cn1cncn1)c1ccc(F)cc1F	no
C[C@@H](N1CCc2nc(-c3cncnc3)sc2C1)[C@](O)(Cn1cncn1)c1ccc(F)cc1F	yes
C[C@@H](N1CCc2nc(-c3cccnc3)sc2C1)[C@](O)(Cn1cncn1)c1ccc(F)cc1F	yes
C[C@@H](N1CCn2nc(-c3cccnc3)nc2C1)[C@](O)(Cn1cncn1)c1ccc(F)cc1F	yes
C[C@@H](N1CCc2nc(-c3ccccc3)sc2C1)[C@](O)(Cn1cncn1)c1ccc(F)cc1F	yes

====

tested on: Aspergillus fumigatus; experiment: Antimicrobial activity against Aspergillus fumigatus 7544 after 48 hrs by serial dilution method; format: functional; conditions: Aspergillus fumigatus, 7544, 48 h

STRUCTURE_SMILES_STRING	MEASUREMENT_UNITS	RELATION_QUALIFIER	MIC
C[C@@H](N1CCn2cc(-c3ccccc3)nc2C1)[C@](O)(Cn1cncn1)c1ccc(F)cc1F	µg/mL	=	16
C[C@@H](N1CCn2nc(-c3cccc(C(F)(F)F)c3)nc2C1)[C@](O)(Cn1cncn1)c1ccc(F)cc1F	µg/mL	=	16
Cc1ccc(-c2cn3c(n2)CN([C@H](C)[C@](O)(Cn2cncn2)c2ccc(F)cc2F)CC3)cc1	µg/mL	=	32
C[C@@H](N1CCc2nc(-c3ccsc3)sc2C1)[C@](O)(Cn1cncn1)c1ccc(F)cc1F	µg/mL	=	8
Cc1cccc(-c2cc3c(s2)CCN([C@H](C)[C@](O)(Cn2cncn2)c2ccc(F)cc2F)C3)c1	µg/mL	=	16
C[C@@H](N1CCn2nc(-c3ccsc3)nc2C1)[C@](O)(Cn1cncn1)c1ccc(F)cc1F	µg/mL	=	16
C[C@@H](N1CCn2nc(-c3ccc(F)cc3)nc2C1)[C@](O)(Cn1cncn1)c1ccc(F)cc1F	µg/mL	=	32
C[C@@H](N1CCc2nc(-c3ccc(Cl)cc3)sc2C1)[C@](O)(Cn1cncn1)c1ccc(F)cc1F	µg/mL	=	32
C[C@@H](N1CCn2nnc(-c3ccccc3)c2C1)[C@](O)(Cn1cncn1)c1ccc(F)cc1F	µg/mL	>	16
C[C@@H](N1CCc2sc(-c3ccc(C#N)nc3)cc2C1)[C@](O)(Cn1cncn1)c1ccc(F)cc1F	µg/mL	=	32
C[C@@H](N1CCc2nc(-c3ccc(C#N)nc3)sc2C1)[C@](O)(Cn1cncn1)c1ccc(F)cc1F	µg/mL	=	8
C[C@@H](N1CCc2sc(-c3ccc(Cl)cc3)cc2C1)[C@](O)(Cn1cncn1)c1ccc(F)cc1F	µg/mL	=	32
COc1ccc(-c2cn3c(n2)CN([C@H](C)[C@](O)(Cn2cncn2)c2ccc(F)cc2F)CC3)cc1	µg/mL	=	32
COc1ccc(-c2nc3n(n2)CCN([C@H](C)[C@](O)(Cn2cncn2)c2ccc(F)cc2F)C3)cc1	µg/mL	=	32
C[C@@H](N1CCn2nc(Br)nc2C1)[C@](O)(Cn1cncn1)c1ccc(F)cc1F	µg/mL	=	16
C[C@@H](N1CCn2nc(-c3cccs3)nc2C1)[C@](O)(Cn1cncn1)c1ccc(F)cc1F	µg/mL	=	8
C[C@@H](N1CCc2sc(-c3cccc(C(F)(F)F)c3)cc2C1)[C@](O)(Cn1cncn1)c1ccc(F)cc1F	µg/mL	=	32

====

// MIC lookup, one value per entry
tested on: Candida albicans; experiment: Antimicrobial activity against fluconazole-resistant Candida albicans 100 after 24 hrs by serial dilution method; assay type: functional; details: Candida albicans, 100, 24 h

MOLECULE	MIC
C[C@@H](c1ncncc1F)[C@](O)(Cn1cncn1)c1ccc(F)cc1F [VORICONAZOLE]	> 16 µg/mL
C[C@@H](N1CCn2nc(-c3ccccc3)nc2C1)[C@](O)(Cn1cncn1)c1ccc(F)cc1F	> 32 µg/mL
C[C@@H](N1CCn2cc(-c3ccccc3)nc2C1)[C@](O)(Cn1cncn1)c1ccc(F)cc1F	> 32 µg/mL
C[C@@H](n1cnc2cc(Cl)ccc2c1=O)[C@](O)(Cn1cncn1)c1ccc(F)cc1F [ALBACONAZOLE]	8 µg/mL
OC(Cn1cncn1)(Cn1cncn1)c1ccc(F)cc1F [FLUCONAZOLE]	512 µg/mL
C[C@@H](N1CCc2nc(-c3cncnc3)sc2C1)[C@](O)(Cn1cncn1)c1ccc(F)cc1F	> 16 µg/mL
C[C@@H](N1CCn2nc(-c3ccc(C#N)nc3)nc2C1)[C@](O)(Cn1cncn1)c1ccc(F)cc1F	8 µg/mL
C[C@@H](N1CCn2nnc(Br)c2C1)[C@](O)(Cn1cncn1)c1ccc(F)cc1F	> 32 µg/mL

====

system: Candida parapsilosis; assay: Antimicrobial activity against Candida parapsilosis 22019 after 24 hrs by serial dilution method; assay type: functional; details: Lodderomyces parapsilosis, 22019, 24 h

STRUCTURE_SMILES_STRING	ASSAY_SYSTEM	MIC [µg/mL]
C[C@@H](N1CCn2cc(-c3cccc(F)c3)nc2C1)[C@](O)(Cn1cncn1)c1ccc(F)cc1F	Candida parapsilosis	0.125
C[C@@H](N1CCn2nnc(Cl)c2C1)[C@](O)(Cn1cncn1)c1ccc(F)cc1F	Candida parapsilosis	0.125
C[C@@H](N1CCc2nc(-c3cccc(Cl)c3)sc2C1)[C@](O)(Cn1cncn1)c1ccc(F)cc1F	Candida parapsilosis	2
C[C@@H](N1CCn2nc(-c3cccc(Br)c3)nc2C1)[C@](O)(Cn1cncn1)c1ccc(F)cc1F	Candida parapsilosis	0.5

The measurements presented in this section are drawn from ChEMBL document CHEMBL3259614.
